- method-summary: RP, Waters ACQUITY UPLC BEH C18, 100 × 2.1 mm, 1.7 µm; A: water + 0.1% formic acid, pH 3; B: 80% acetonitrile + 20% acetone + 0.1% formic acid, pH 3; gradient (min/%B) 0/0 6/100
- measurement-conditions: stereoisomer not certain
attribute-measured: LC retention time (min)
Please state the figure in min; there is no need to write the unit.

compound	LC retention time (min)
CCCCCCCCCCCCCCCC(=O)OCC(COP(=O)([O-])OCC[N+](C)(C)C)OC(=O)CCCCCCCC(=O)O (stereo not given)	4.66
CC(C)c1cc2c(c(O)c1O)C13CCCC(C)(C)C1CC2OC3=O (stereo not given)	4
Cn1c(=N)ccn(C2OC(CO)C(O)C2O)c1=O (stereo not given) [3-methylcytidine methosulfate]	0.986

Q. Dear colleague, please send me the reported LC retention time for O=C(O)CCCCCC(=O)O when you can.
A. 1.72

Q. // fetch LC retention time given entry OC1C(O)C(O)C(O)C(O)C1O (stereo not given)
A. 0.571

Q. For the compound CCC(C)C(NC(=O)C(N)CC(=O)O)C(=O)O (stereo not given) , give its measured LC retention time value.
A. 0.6

Q. Retrieve LC retention time measured for O=C1CCC(C(=O)N2CCCC2C(=O)O)N1 (stereo not given) and print it.
A. 1.43

Q. Provide one value: measured LC retention time of Cn1cnc(C[C@H](N)C(=O)O)c1
A. 0.531

Q. Give the value of LC retention time reported for the following: O=C(O)CC(O)(CC(=O)O)C(=O)O
A. 0.785

Q. For CSCCC(NC(=O)Cc1ccccc1)C(=O)O (stereo not given) , write its LC retention time.
A. 2.58
